All figures here come from ChEMBL document CHEMBL5550200.

biological target: UniProt P54762; assay: Induction of stabilization of recombinant EPHB1 (unknown origin) assessed as change in melting temperature by differential scanning fluorimetry assay
Sequence (P54762 whole entry): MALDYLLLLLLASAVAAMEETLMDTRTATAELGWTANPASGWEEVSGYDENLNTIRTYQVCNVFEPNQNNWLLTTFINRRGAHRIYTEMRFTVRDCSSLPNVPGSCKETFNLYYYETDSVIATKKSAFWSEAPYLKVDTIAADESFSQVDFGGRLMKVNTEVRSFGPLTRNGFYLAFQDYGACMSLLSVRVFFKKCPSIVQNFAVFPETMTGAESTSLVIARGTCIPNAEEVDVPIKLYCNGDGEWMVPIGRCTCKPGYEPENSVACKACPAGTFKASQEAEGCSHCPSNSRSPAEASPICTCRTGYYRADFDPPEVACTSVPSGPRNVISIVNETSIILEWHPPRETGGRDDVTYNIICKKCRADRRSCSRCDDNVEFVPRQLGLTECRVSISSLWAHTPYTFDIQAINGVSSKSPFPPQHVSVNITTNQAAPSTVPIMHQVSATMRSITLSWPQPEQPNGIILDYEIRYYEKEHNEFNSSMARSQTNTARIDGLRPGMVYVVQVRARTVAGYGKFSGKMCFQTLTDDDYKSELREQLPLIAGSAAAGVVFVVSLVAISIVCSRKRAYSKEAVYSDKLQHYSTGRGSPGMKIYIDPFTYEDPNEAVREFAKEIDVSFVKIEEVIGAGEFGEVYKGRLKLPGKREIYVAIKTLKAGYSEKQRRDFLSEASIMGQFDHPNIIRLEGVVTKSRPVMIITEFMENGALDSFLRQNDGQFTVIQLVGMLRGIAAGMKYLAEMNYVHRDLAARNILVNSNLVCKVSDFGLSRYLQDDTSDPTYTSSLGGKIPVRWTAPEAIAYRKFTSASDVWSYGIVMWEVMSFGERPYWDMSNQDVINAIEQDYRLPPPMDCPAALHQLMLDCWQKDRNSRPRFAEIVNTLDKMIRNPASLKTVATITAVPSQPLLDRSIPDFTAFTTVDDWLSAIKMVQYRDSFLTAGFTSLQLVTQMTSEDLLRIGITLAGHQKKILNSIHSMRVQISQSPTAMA
Each entry below lists one item and its recorded deltaTm value.
assay-endpoint: deltaTm (K)

• O=S1(=O)NCCCNc2nc(ncc2-c2cc(Cl)c(Cl)cc2F)Nc2cccc1c2 = 3.5
• COc1ccc(-c2cnc3nc2NCCCNS(=O)(=O)c2cccc(c2)N3)cc1OC = 0.6
• O=S1(=O)NCCCNc2nc(ncc2-c2ccc(F)c(C(F)(F)F)c2)Nc2cccc1c2 = 0.6
• COc1cc(-c2cnc3nc2NCCCNS(=O)(=O)c2cccc(c2)N3)ccc1C#N = 5.2
• COCCOc1ccc2cc1S(=O)(=O)NCCCNc1nc(ncc1-c1ccc(F)c(OC)c1)N2 = 2.6
